# Assay text: MTT cytotoxicity assay, LO2
# Parameters: dose or concentration left out as unconfirmed
# Conditions used: human, LO2 normal liver cells
Assign labels as follows, please: 1.0 for cytotoxicity at 72 h below 30%; 0.0 for cytotoxicity at 72 h equal to or exceeding 30%.

Worked set:
molecule=O=c1ccc2ccc(O)cc2o1 discrete_label=1.0
molecule=C=C1CC[C@@H]2[C@](C)(CCC[C@]2(C)C(=O)O)[C@H]1C/C=C(/C)C=O discrete_label=1.0

Qu. Hello, is cytotoxicity at 72 h of the following molecule strictly smaller than 30%? CC(C)c1cc2c(cc1O)C1(C)CCCC(C)(C)C1=C(O)C2=O (stereo not drawn)
Ans. 1.0

Qu. Hello, is cytotoxicity at 72 h of the following molecule strictly smaller than 30%? COc1cccc2c1C(=O)c1c(O)c3c(c(O)c1C2=O)C[C@@](O)(C(=O)CO)C[C@@H]3O[C@H]1C[C@H](N)[C@H](O)[C@H](C)O1 [Doxorubicin, reference compound]
Ans. 0.0

Qu. Hello, is cytotoxicity at 72 h of the following molecule strictly smaller than 30%? C=C1CCC2C(C)(C(=O)O)CCCC2(C)C1C=CC(C)=O (stereo not drawn)
Ans. 1.0

Qu. Hello, is cytotoxicity at 72 h of the following molecule strictly smaller than 30%? `CC(C)c1cc2c(cc1O)[C@@]1(C)CCCC(C)(C)[C@@H]1CC2=O`
Ans. 1.0

###

# Assay text: MTT cytotoxicity assay, MCF-7
# Set-up: dose or concentration left out as unconfirmed
# Conditions used: human, MCF-7 cells
Assign labels as follows, please: YES for cytotoxicity at 72 h below 20%; NO for cytotoxicity at 72 h equal to or exceeding 20%.

Worked set:
compound=CC(C)c1cc2c(cc1O)[C@@]1(C)CCCC(C)(C)[C@@H]1CC2=O discrete_label=YES
compound=O=c1ccc2ccc(O)cc2o1 discrete_label=YES
compound=C=C1CC[C@@H]2[C@](C)(CCC[C@]2(C)C(=O)O)[C@H]1C/C=C(/C)C=O discrete_label=NO
compound="COc1cccc2c1C(=O)c1c(O)c3c(c(O)c1C2=O)C[C@@](O)(C(=O)CO)C[C@@H]3O[C@H]1C[C@H](N)[C@H](O)[C@H](C)O1 [Doxorubicin, reference compound]" discrete_label=NO
compound="CC(C)c1cc2c(cc1O)C1(C)CCCC(C)(C)C1=C(O)C2=O (stereo not drawn)" discrete_label=NO

As a next step, examine the compound that follows.
Qu. Hello, is cytotoxicity at 72 h of the following compound strictly smaller than 20%? C=C1CCC2C(C)(C(=O)O)CCCC2(C)C1C=CC(C)=O (stereo not drawn)
Ans. NO

###

# Assay text: MTT cytotoxicity assay, HepG2
# Parameters: dose or concentration left out as unconfirmed
# Conditions used: human, HepG2 cells
Parameter: cytotoxicity at 72 h (%)
Numbers only, in %.

molecule="COc1cccc2c1C(=O)c1c(O)c3c(c(O)c1C2=O)C[C@@](O)(C(=O)CO)C[C@@H]3O[C@H]1C[C@H](N)[C@H](O)[C@H](C)O1 [Doxorubicin, reference compound]" reading=42.2
molecule="CC(C)c1cc2c(cc1O)C1(C)CCCC(C)(C)C1=C(O)C2=O (stereo not drawn)" reading=86.6
molecule="C=C1CCC2C(C)(C(=O)O)CCCC2(C)C1C=CC(C)=O (stereo not drawn)" reading=18.4
molecule=CC(C)c1cc2c(cc1O)[C@@]1(C)CCCC(C)(C)[C@@H]1CC2=O reading=35
molecule=O=c1ccc2ccc(O)cc2o1 reading=32.7

Qu. Tell me cytotoxicity at 72 h reported for `C=C1CC[C@@H]2[C@](C)(CCC[C@]2(C)C(=O)O)[C@H]1C/C=C(/C)C=O`
Ans. 16.1

###

What IC50 at 72 h was measured for each of the following?
# Assay text: MTT cytotoxicity assay, HepG2
# Conditions used: human, HepG2 cells
Numbers only, in µM.

molecule="COc1cccc2c1C(=O)c1c(O)c3c(c(O)c1C2=O)C[C@@](O)(C(=O)CO)C[C@@H]3O[C@H]1C[C@H](N)[C@H](O)[C@H](C)O1 [Doxorubicin, reference compound]" reading=3.18

Qu. Tell me IC50 at 72 h reported for CC(C)c1cc2c(cc1O)C1(C)CCCC(C)(C)C1=C(O)C2=O (centres unmarked)
Ans. 48.7
